# TESTED_ON: NADPH oxidase 1 (Homo sapiens) (UniProt Q9Y5S8)
# Sequence (Q9Y5S8 whole entry, looked up): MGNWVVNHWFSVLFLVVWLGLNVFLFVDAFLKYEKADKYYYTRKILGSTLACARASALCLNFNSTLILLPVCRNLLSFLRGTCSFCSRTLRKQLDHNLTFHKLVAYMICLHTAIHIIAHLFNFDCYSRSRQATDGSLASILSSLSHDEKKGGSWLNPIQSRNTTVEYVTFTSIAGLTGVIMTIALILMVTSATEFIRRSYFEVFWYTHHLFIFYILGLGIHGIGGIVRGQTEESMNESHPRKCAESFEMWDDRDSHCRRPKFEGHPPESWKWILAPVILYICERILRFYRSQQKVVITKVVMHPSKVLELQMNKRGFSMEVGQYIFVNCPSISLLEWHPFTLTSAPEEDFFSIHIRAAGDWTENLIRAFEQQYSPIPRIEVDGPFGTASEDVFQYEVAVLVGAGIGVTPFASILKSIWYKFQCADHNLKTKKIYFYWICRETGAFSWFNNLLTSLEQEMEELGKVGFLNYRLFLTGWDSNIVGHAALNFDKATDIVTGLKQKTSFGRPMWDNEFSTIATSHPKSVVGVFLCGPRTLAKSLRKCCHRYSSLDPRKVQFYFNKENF
# PROCEDURE_SUMMARY: inhibitors of human NADPH oxidase 1 (Nox1) (AID 1792)
# EXPERIMENTAL_CONTEXT: HT29 cells, luminol chemiluminescence ROS; at 6.7 µM
In all, about 16,000 compounds went through this assay and about 130 (0.81%) were called active. Cut-off read from the data, not from the text of the source: active = inhibition above about 75%; inactive = the rest. The entries come from a sample that favours actives as a whole.
Can you answer with just one of these options? active, inactive

Which outcome was assigned to CSc1ccc(Br)cc1 in this test?
inactive

Which outcome was assigned to Cc1[nH]c2c(F)cc(F)cc2c(=O)c1I in this test?
inactive

----------
# TESTED_ON: NADPH oxidase 1 (Homo sapiens) (UniProt Q9Y5S8)
# PROCEDURE_SUMMARY: inhibitors of human NADPH oxidase 1 (Nox1) (AID 1792)
# EXPERIMENTAL_CONTEXT: HT29 cells, luminol chemiluminescence ROS; at 6.7 µM
Out of some 16,000 compounds screened, about 130 (0.81%) were called active. Rule as the data show it: active = inhibition above about 75%; inactive = the rest. This excerpt belongs to a sample that is enriched for actives.
Can you answer with just one of these options? active, inactive

Record excerpt, results attached:
[[record]]
molecule = "O=S(=O)(Oc1ccc(C2SCCS2)cc1)c1ccc(Br)cc1"
label_value = "inactive"

[[record]]
molecule = "NNC(=O)c1csc(COc2ccc(C3SCCS3)cc2)n1"
label_value = "inactive"

[[record]]
molecule = "CC(=O)N1CCc2cc(NC(=S)Nc3ccccc3Cl)ccc21"
label_value = "inactive"


Which outcome was assigned to COc1ccc(-c2nnc(SCC(O)C(F)(F)F)n2-c2cccc(OC)c2)cc1 (centres undefined) in this test?
inactive

Which outcome was assigned to CCOC(=O)/C(C#N)=C/c1ccc(-c2nccs2)cc1C(C)(C)C in this test?
inactive

----------
# TESTED_ON: NADPH oxidase 1 (Homo sapiens)
# PROCEDURE_SUMMARY: inhibitors of human NADPH oxidase 1 (Nox1) (AID 1792)
# EXPERIMENTAL_CONTEXT: HT29 cells, luminol chemiluminescence ROS; at 6.7 µM
About 130 (0.81%) of roughly 16,000 compounds were called active. No stated cut-off is given here; in the data, active means inhibition above about 75%; inactive means the rest. For the sample, actives were picked, then their nearest neighbours and some compounds at random.
Can you answer with just one of these options? active, inactive

Record excerpt, results attached:
[[record]]
compound = "COC(=O)c1sccc1-c1ccc(/C(C)=N/NC(N)=O)o1"
label_value = "inactive"

[[record]]
compound = "COC(=O)c1cc(OC)c(OC)cc1NS(=O)(=O)c1ccsc1C(=O)OC"
label_value = "inactive"

[[record]]
compound = "Cc1ccc(S(=O)(=O)NNC(=S)NC(C)(C)C)cc1"
label_value = "inactive"


Which outcome was assigned to NS(=O)(=O)c1cc(C(F)(F)F)cc(C(F)(F)F)c1 in this test?
inactive

Which outcome was assigned to Cc1ccc2sc(NC(=O)NC(=O)c3c(Cl)cccc3Cl)nc2c1 in this test?
inactive

Which outcome was assigned to Cc1ccc(C(=O)N2CCN(c3cccc4[nH]ccc34)CC2)cc1 in this test?
active

Which outcome was assigned to Cc1onc(-c2ccccc2)c1C(=O)Sc1ccc(C(F)(F)F)cn1 in this test?
inactive

Which outcome was assigned to CC1=NCCNC(C)=C1N1CCOCC1 in this test?
inactive

----------
# TESTED_ON: NADPH oxidase 1 (Homo sapiens) (UniProt Q9Y5S8)
# PROCEDURE_SUMMARY: inhibitors of human NADPH oxidase 1 (Nox1) (AID 1792)
# EXPERIMENTAL_CONTEXT: HT29 cells, luminol chemiluminescence ROS; at 6.7 µM; stronger effect = higher value
Among all 16,000 compounds or so, about 130 (0.81%) were called active. The sample as a whole holds a higher share of actives than the screen did.
ENDPOINT: inhibition

[[record]]
compound = "Cc1[nH]ncc1S(=O)(=O)c1ccc(Cl)cc1"
tested_on = "NADPH oxidase 1 (Homo sapiens) (UniProt Q9Y5S8)"
result = "-77.8% (inactive)"

[[record]]
compound = "O=C(NC(=S)Nc1nc(-c2ccc(Cl)cc2)cs1)C1CC1"
tested_on = "NADPH oxidase 1 (Homo sapiens) (UniProt Q9Y5S8)"
result = "-57.1% (inactive)"

[[record]]
compound = "OC(CNCc1ccc2c(c1)OCO2)COc1ccccc1 (centres undefined)"
tested_on = "NADPH oxidase 1 (Homo sapiens) (UniProt Q9Y5S8)"
result = "-16.2% (inactive)"

[[record]]
compound = "CC(=O)NC(Cc1c[nH]c2ccccc12)C(=O)O (centres undefined)"
tested_on = "NADPH oxidase 1 (Homo sapiens) (UniProt Q9Y5S8)"
result = "-15.3% (inactive)"

[[record]]
compound = "COC(=O)c1cccc(CSc2ncccc2C(=O)O)c1"
tested_on = "NADPH oxidase 1 (Homo sapiens) (UniProt Q9Y5S8)"
result = "-48.1% (inactive)"

[[record]]
compound = "O=C1c2ccccc2O[C@@H](c2ccccc2)[C@@H]1NC1CCCCC1"
tested_on = "NADPH oxidase 1 (Homo sapiens) (UniProt Q9Y5S8)"
result = "-19.7% (inactive)"

[[record]]
compound = "NNC(=O)c1ccc(Cl)cc1Cl"
tested_on = "NADPH oxidase 1 (Homo sapiens) (UniProt Q9Y5S8)"
result = "-29.6% (inactive)"

[[record]]
compound = "COc1ccccc1C1CCN(c2ccc([N+](=O)[O-])cn2)CC1"
tested_on = "NADPH oxidase 1 (Homo sapiens) (UniProt Q9Y5S8)"
result = "18% (inactive)"


Kindly indicate its recorded inhibition. Item: O=C(Nc1ccccc1C(F)(F)F)N1CCCC1c1cccnc1 (centres undefined)
-8.11% (inactive)

Kindly indicate its recorded inhibition. Item: Cc1oc(-c2ccc(Cl)cc2)cc1C(=O)O/N=C(\N)Cc1nc2cccnc2n1C1CC1
86.4% (active)

Kindly indicate its recorded inhibition. Item: CSc1nc(-n2nc(C)cc2C)nc(-c2ccco2)c1C#N
-107% (inactive)

Kindly indicate its recorded inhibition. Item: CCCCC#Cc1cncc(C(=O)NNC(=O)Nc2ccc(Cl)cc2)c1
11.2% (inactive)

Kindly indicate its recorded inhibition. Item: N#CNC(N)=Nc1cc(Cl)ccc1Cl
-53.6% (inactive)

Kindly indicate its recorded inhibition. Item: Cc1nc(-c2ccccc2)sc1-c1nnc(C2CC2)o1
-8.29% (inactive)

Kindly indicate its recorded inhibition. Item: O=C(O)c1cc(=O)[nH]c2c(Cl)cc(Cl)cc12
-17.9% (inactive)

Kindly indicate its recorded inhibition. Item: Cc1[nH]c2ccccc2c1Sc1ccc(Cl)cc1
-26.1% (inactive)

Kindly indicate its recorded inhibition. Item: C=C(C)c1cccc(C(C)(C)NC(=O)CC(C)=O)c1
-17.3% (inactive)

Kindly indicate its recorded inhibition. Item: O=C(O)C1CCC1C(=O)Nc1nnc(C2CC2)s1 (centres undefined)
12% (inactive)

Kindly indicate its recorded inhibition. Item: O=C(Cn1c(=Nc2ccc(F)cc2)oc2ccccc2c1=O)c1ccccc1
-0.92% (inactive)

Kindly indicate its recorded inhibition. Item: CCOC(=O)Cc1cnc(NN=C2C3CC4CC(C3)CC2C4)s1
55.1% (inactive)

Kindly indicate its recorded inhibition. Item: CC(C)n1c(SCC(=O)c2cccc([N+](=O)[O-])c2)nc2cc(C(F)(F)F)ccc21
4.76% (inactive)

Kindly indicate its recorded inhibition. Item: CN(C)NC(=O)c1csnc1-c1c(Cl)cccc1Cl
-20.2% (inactive)

Kindly indicate its recorded inhibition. Item: CC(C)c1ccc(N2C(=O)/C(=C\c3ccc(-c4ccc([N+](=O)[O-])cc4)o3)SC2=S)cc1
-23.7% (inactive)

Kindly indicate its recorded inhibition. Item: COc1cc(OC)nc(/N=C/c2nc(-c3ccccc3)oc2O)n1
16.6% (inactive)
